Here the recorded FOB is given for each entry.
measured.target: T1, mouse SIRPβ1 on CHO cells (mouse)
T1 construct: Whole entry
T1 chain: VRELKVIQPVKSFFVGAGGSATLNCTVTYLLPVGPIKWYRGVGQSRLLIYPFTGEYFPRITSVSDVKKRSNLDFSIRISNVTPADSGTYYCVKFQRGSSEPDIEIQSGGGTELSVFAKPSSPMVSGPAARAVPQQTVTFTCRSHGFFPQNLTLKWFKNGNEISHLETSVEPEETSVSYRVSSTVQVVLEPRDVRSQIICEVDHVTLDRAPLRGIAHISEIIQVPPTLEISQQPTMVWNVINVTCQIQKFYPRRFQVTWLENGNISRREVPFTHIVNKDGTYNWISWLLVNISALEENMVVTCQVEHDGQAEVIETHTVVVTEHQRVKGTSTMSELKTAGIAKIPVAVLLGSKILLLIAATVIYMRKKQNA
assay.text: flow cytometry;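 further: antibodies tested at 1 µg/ml for 30 min on ice against receptor-expressing cells, detected with a PE-labelled secondary antibody, read as mean fluorescence intensity relative to background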
Give just the numeric value; fold over background need not be written.

In the examples that follow, each entry is paired with its recorded FOB.
SB-14 (antibody, V domains shown, IgG) VH: QVQLVQSGAEVKKPGSSVKVSCKASGGTFSSYAISWVRQAPGQGLEWMGGIIPIFGTASYAQKFQGRVTITADESTSTAYMELSSLRSEDTAVYYCARDRGGVGFDYWGQGTLVTVSS VL: EIVMTQSPATLSLSPGERATLSCRASQSVSSYLAWYQQKPGQAPRLLIYDSSNRATGIPARFSGSGSGTDFTLTISSLEPEDFAVYYCQQFSYYPITFGGGTKVEIK: 1.3
SB-47 (antibody, V domains shown, IgG) VH: QLQLQESGPGLVKPSETLSLTCTVSGGSISSSSYAWGWIRQPPGKGLEWIGSIYYSGSTYYNPSLKSRVTISVDTSKNQFSLKLSSVTAADTAVYYCARDLGHYDYWSGSRDYYYGMDVWGQGTTVTVSS VL: DIQMTQSPSSLSASVGDRVTITCQASQDISNYLNWYQQKPGKAPKLLIYDASNLETGVPSRFSGSGSGTDFTFTISSLQPEDIATYYCQQADYFPITFGGGTKVEIK: 1.3
SB-31 (antibody, V domains shown, IgG) VH: QVQLVQSGAEVKKPGASVKVSCKASGYTFTSYYMHWVRQAPGQGLEWMGIINPGGGSTSYAQKFQGRVTMTRDTSTSTVYMELSSLRSEDTAVYYCAREGLYSSGWYIDVWGQGTLVTVSS VL: DIQMTQSPSSVSASVGDRVTITCRASQGISSWLAWYQQKPGKAPKLLIYAASSLQSGVPSRFSGSGSGTDFTLTISSLQPEDFATYYCQQAVSHPFTFGGGTKVEIK: 1.4
SB-49 (antibody, V domains shown, IgG) VH: QLQLQESGPGLVKPSETLSLTCTVSGGSISSSDYYWGWIRQPPGKGLEWIGSIYYSGSTYYNPSLKSRVTISVDTSKNQFSLKLSSVTAADTAVYYCARGPTGYKDKWRYYYGMDVWGQGTTVTVSS VL: DIQMTQSPSSLSASVGDRVTITCQASQDITNYLNWYQQKPGKAPKLLIYDASNLETGVPSRFSGSGSGTDFTFTISSLQPEDIATYYCQQYFHPPLTFGGGTKVEIK: 1.2

Now look at this one.
The binder SB-48 (antibody, V domains shown, IgG) VH: QVQLVESGGGVVQPGRSLRLSCAASGFTFSSYGMHWVRQAPGKGLEWVAVISYDGSNKYYADSVKGRFTISRDNSKNTLYLQMNSLRAEDTAVYYCARDGTIAAAGWPPEYFQHWGQGTLVTVSS VL: DIQMTQSPSSVSASVGDRVTITCRASQGIDSWLAWYQQKPGKAPKLLIYAASSLQSGVPSRFSGSGSGTDFTLTISSLQPEDFATYYCQQASNFPITFGGGTKVEIK showed FOB equal to 1.1

Measured values drawn from patent US20250026827A1 for this set.
